# Tested on: 931267-113-T-J1-PDC KRAS spheroid with HUVEC/MSC, viability
# EXPERIMENT: Anticancer human tumor 931267-113-T-J1-PDC patient-derived colon adenocarcinoma cell line growth inhibition [KRAS2]
# CONDITIONS_USED: second compound 3.16 µM; first compound 10 µM; active compounds read low
Measured viability, T/C by item

Please review the following examples before continuing.
compound="COc1cc(Nc2ncc3c(n2)-c2ccc(Cl)cc2C(c2c(F)cccc2OC)=NC3)ccc1C(=O)O + COc1cc2nc(C)nc(NC(C)c3cc(N)cc(C(F)(F)F)c3)c2cc1OC1CCOC1" system="931267-113-T-J1-PDC KRAS spheroid with HUVEC/MSC, viability" quantity_kind="viability, T/C" value_measured=49.6%
compound="COc1cc(Nc2ncc3c(n2)-c2ccc(Cl)cc2C(c2c(F)cccc2OC)=NC3)ccc1C(=O)O + CC1OCC2(CCN(c3cnc(Sc4ccnc(N)c4Cl)c(N)n3)CC2)C1N" system="931267-113-T-J1-PDC KRAS spheroid with HUVEC/MSC, viability" quantity_kind="viability, T/C" value_measured=21.6%

Task: Give the reported viability, T/C for CC(C)NCC(C(=O)N1CCN(c2ncnc3c2C(C)CC3O)CC1)c1ccc(Cl)cc1 (stereo not drawn) + COc1cc2nc(C)nc(NC(C)c3cc(N)cc(C(F)(F)F)c3)c2cc1OC1CCOC1 (system: 931267-113-T-J1-PDC KRAS spheroid with HUVEC/MSC, viability).
Result: 20.6%

###

# Test system: 931267-113-T-J1-PDC KRAS spheroid with HUVEC/MSC, viability
# EXPERIMENT: Anticancer human tumor 931267-113-T-J1-PDC cell line growth inhibition [KRAS2];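 note: compound exposure lasted 7 days before the readout; 100% = DMSO vehicle control viability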
# CONDITIONS_USED: second compound 1 µM; first compound 0.316 µM; active compounds read low
# From the text: Multicellular complex tumor spheroid response to RAS pathway inhibitors in combination with a targeted agents in patient-derived cell lines with oncogenic KRAS variants from multiple cancer types A high-throughput screen of multi-cell type tumor spheroids was designed to identify active combinations of targeted small molecules and KRAS pathway inhibitors. […] Compounds. […] If the clinical Cmax for an agent had not been determined, the highest concentration tested was 10 microM. […]
QUANTITY_KIND: viability, T/C (%)
Supply the numeric figure in %, leaving out any unit text.

compound="CCN1CCN(Cc2ccc(Nc3ncc(F)c(-c4cc(F)c5nc(C)n(C(C)C)c5c4)n3)nc2)CC1 + C=CC(=O)N1CCN(c2nc(=O)n(-c3c(C)ccnc3C(C)C)c3nc(-c4c(O)cccc4F)c(F)cc23)C(C)C1" quantity_kind="viability, T/C" value_measured=60.7
compound="COc1cc(Nc2ncc3c(n2)-c2ccc(Cl)cc2C(c2c(F)cccc2OC)=NC3)ccc1C(=O)O + COc1cc2nc(C)nc(NC(C)c3cc(N)cc(C(F)(F)F)c3)c2cc1OC1CCOC1" quantity_kind="viability, T/C" value_measured=86.3
compound="COC(=O)c1ccc2c(C(=Nc3ccc(N(C)C(=O)CN4CCN(C)CC4)cc3)c3ccccc3)c(O)[nH]c2c1 + C=CC(=O)N1CCN(c2nc(=O)n(-c3c(C)ccnc3C(C)C)c3nc(-c4c(O)cccc4F)c(F)cc23)C(C)C1" quantity_kind="viability, T/C" value_measured=82.8
compound="Cn1nccc1Nc1nccc(-c2cc3c(s2)C(C)(C)N(CCN2CCOCC2)C3=O)n1 + CC1OCC2(CCN(c3cnc(Sc4ccnc(N)c4Cl)c(N)n3)CC2)C1N" quantity_kind="viability, T/C" value_measured=47.5
compound="Cn1nccc1Nc1nccc(-c2cc3c(s2)C(C)(C)N(CCN2CCOCC2)C3=O)n1 + CNCc1ccccc1-c1csc(C(C)Nc2nc(C)nc3cc(OC)c(OC)cc23)c1" quantity_kind="viability, T/C" value_measured=26.6
compound="CCN1CCN(Cc2ccc(Nc3ncc(F)c(-c4cc(F)c5nc(C)n(C(C)C)c5c4)n3)nc2)CC1 + C=CC(=O)N1CCN(c2nc(OCC3CCCN3C)nc3c2CCN(c2cccc4cccc(C)c24)C3)CC1CC#N" quantity_kind="viability, T/C" value_measured=61.2
compound="COc1cc(Nc2ncc3c(n2)-c2ccc(Cl)cc2C(c2c(F)cccc2OC)=NC3)ccc1C(=O)O + C=CC(=O)N1CCN(c2nc(=O)n(-c3c(C)ccnc3C(C)C)c3nc(-c4c(O)cccc4F)c(F)cc23)C(C)C1" quantity_kind="viability, T/C" value_measured=107
compound="COc1cc(Nc2ncc3c(n2)-c2ccc(Cl)cc2C(c2c(F)cccc2OC)=NC3)ccc1C(=O)O + C=CC(=O)N1CCN(c2nc(OCC3CCCN3C)nc3c2CCN(c2cccc4cccc(C)c24)C3)CC1CC#N" quantity_kind="viability, T/C" value_measured=66.4

Task: Could you tell me which viability, T/C is on file for O=C(c1cc(Cc2n[nH]c(=O)c3ccccc23)ccc1F)N1CCN(C(=O)C2CC2)CC1 + CNCc1ccccc1-c1csc(C(C)Nc2nc(C)nc3cc(OC)c(OC)cc23)c1 ?
Result: 108

Task: Could you tell me which viability, T/C is on file for CC1COCCN1c1cc(-c2ccnn2C)c2ccnc(-c3ccn[nH]3)c2n1 (stereo unspecified) + C=CC(=O)N1CCN(c2nc(OCC3CCCN3C)nc3c2CCN(c2cccc4cccc(C)c24)C3)CC1CC#N ?
Result: 12.8

Task: Could you tell me which viability, T/C is on file for CC1COCCN1c1cc(-c2ccnn2C)c2ccnc(-c3ccn[nH]3)c2n1 (stereo unspecified) + CC1OCC2(CCN(c3cnc(Sc4ccnc(N)c4Cl)c(N)n3)CC2)C1N ?
Result: 18.1

###

# Test system: 931267-113-T-J1-PDC KRAS spheroid with HUVEC/MSC, viability
# EXPERIMENT: Anticancer human tumor 931267-113-T-J1-PDC cell line growth inhibition [KRAS2];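 note: compound exposure lasted 7 days before the readout; 100% = DMSO vehicle control viability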
# CONDITIONS_USED: second compound 0.1 µM; first compound 10 µM; active compounds read low
# Excerpt: Multicellular complex tumor spheroid response to RAS pathway inhibitors in combination with a targeted agents in patient-derived cell lines with oncogenic KRAS variants from multiple cancer types A high-throughput screen of multi-cell type tumor spheroids was designed to identify active combinations of targeted small molecules and KRAS pathway inhibitors. […] Compounds. […] If the clinical Cmax for an agent had not been determined, the highest concentration tested was 10 microM. […]
QUANTITY_KIND: viability, T/C (%)
Supply the numeric figure in %, leaving out any unit text.

Please review the following examples before continuing.
compound="COC(=O)c1ccc2c(C(=Nc3ccc(N(C)C(=O)CN4CCN(C)CC4)cc3)c3ccccc3)c(O)[nH]c2c1 + CNCc1ccccc1-c1csc(C(C)Nc2nc(C)nc3cc(OC)c(OC)cc23)c1" value_measured=0.19
compound="CC(C)NCC(C(=O)N1CCN(c2ncnc3c2C(C)CC3O)CC1)c1ccc(Cl)cc1 (stereo not given) + CC1OCC2(CCN(c3cnc(Sc4ccnc(N)c4Cl)c(N)n3)CC2)C1N" value_measured=37.3
compound="CC1OCC2(CCN(c3cnc(Sc4ccnc(N)c4Cl)c(N)n3)CC2)C1N (stereo not given) + CNCc1ccccc1-c1csc(C(C)Nc2nc(C)nc3cc(OC)c(OC)cc23)c1" value_measured=59.8
compound="CCNC(=O)CC1N=C(c2ccc(Cl)cc2)c2cc(OC)ccc2-n2c(C)nnc21 (stereo not given) + CNCc1ccccc1-c1csc(C(C)Nc2nc(C)nc3cc(OC)c(OC)cc23)c1" value_measured=37.3
compound="CCNC(=O)CC1N=C(c2ccc(Cl)cc2)c2cc(OC)ccc2-n2c(C)nnc21 (stereo not given) + C=CC(=O)N1CCN(c2nc(OCC3CCCN3C)nc3c2CCN(c2cccc4cccc(C)c24)C3)CC1CC#N" value_measured=41.6
compound="COC(=O)c1ccc2c(C(=Nc3ccc(N(C)C(=O)CN4CCN(C)CC4)cc3)c3ccccc3)c(O)[nH]c2c1 + C=CC(=O)N1CCN(c2nc(=O)n(-c3c(C)ccnc3C(C)C)c3nc(-c4c(O)cccc4F)c(F)cc23)C(C)C1" value_measured=0.48

Pending compound:
Task: Could you tell me which viability, T/C is on file for CC1(C)CCC(CN2CCN(c3ccc(C(=O)NS(=O)(=O)c4ccc(NCC5CCOCC5)c([N+](=O)[O-])c4)c(Oc4cnc5[nH]ccc5c4)c3)CC2)=C(c2ccc(Cl)cc2)C1 + C=CC(=O)N1CCN(c2nc(OCC3CCCN3C)nc3c2CCN(c2cccc4cccc(C)c24)C3)CC1CC#N ?
Result: 0.82

###

Measured viability, T/C by item
# System: 931267-113-T-J1-PDC KRAS spheroid with HUVEC/MSC, viability
# EXPERIMENT: Anticancer human tumor 931267-113-T-J1-PDC cell line growth inhibition [KRAS2];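 note: compound exposure lasted 7 days before the readout; 100% = DMSO vehicle control viability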
# CONDITIONS_USED: second compound 1 µM; first compound 0.1 µM; active compounds read low
Supply the numeric figure in %, leaving out any unit text.

Please review the following examples before continuing.
compound="Cn1ncnc1[C@H]1c2n[nH]c(=O)c3cc(F)cc(c23)N[C@@H]1c1ccc(F)cc1 + COc1cc2nc(C)nc(NC(C)c3cc(N)cc(C(F)(F)F)c3)c2cc1OC1CCOC1" value_measured=95.4
compound="COC(=O)c1ccc2c(C(=Nc3ccc(N(C)C(=O)CN4CCN(C)CC4)cc3)c3ccccc3)c(O)[nH]c2c1 + COc1cc2nc(C)nc(NC(C)c3cc(N)cc(C(F)(F)F)c3)c2cc1OC1CCOC1" value_measured=95.2
compound="COc1cc(Nc2ncc3c(n2)-c2ccc(Cl)cc2C(c2c(F)cccc2OC)=NC3)ccc1C(=O)O + CC1OCC2(CCN(c3cnc(Sc4ccnc(N)c4Cl)c(N)n3)CC2)C1N" value_measured=52.4
compound="Cn1nccc1Nc1nccc(-c2cc3c(s2)C(C)(C)N(CCN2CCOCC2)C3=O)n1 + CNCc1ccccc1-c1csc(C(C)Nc2nc(C)nc3cc(OC)c(OC)cc23)c1" value_measured=51
compound="Cn1nccc1Nc1nccc(-c2cc3c(s2)C(C)(C)N(CCN2CCOCC2)C3=O)n1 + C=CC(=O)N1CCN(c2nc(OCC3CCCN3C)nc3c2CCN(c2cccc4cccc(C)c24)C3)CC1CC#N" value_measured=65.9
compound="CC(C)n1nc(-c2ccc3oc(N)nc3c2)c2c(N)ncnc21 + CNCc1ccccc1-c1csc(C(C)Nc2nc(C)nc3cc(OC)c(OC)cc23)c1" value_measured=5.59

Pending compound:
Task: Could you tell me which viability, T/C is on file for CC(C)NCC(C(=O)N1CCN(c2ncnc3c2C(C)CC3O)CC1)c1ccc(Cl)cc1 (configuration not stated) + CC1OCC2(CCN(c3cnc(Sc4ccnc(N)c4Cl)c(N)n3)CC2)C1N ?
Result: 56.9
